Taken from the supplement of paper PMC10307832.

Recorded relative viability values for a group of compounds are listed next.
System: PC-3 [JPC-3]
test_name: relative viability (nuclei count vs DMSO), 5 days (fraction); higher = more cells survive
assay_context: first compound 0.001 µM
quantity: relative viability

# compound, quantity, val
records = [
    ("Cc1cn(-c2cc(NC(=O)c3ccc(C)c(Nc4nccc(-c5cccnc5)n4)c3)cc(C(F)(F)F)c2)cn1 [Nilotinib] + Nc1nc2[nH]cc(CCc3ccc(C(=O)N[C@@H](CCC(=O)O)C(=O)O)cc3)c2c(=O)[nH]1 [Pemetrexed] (partner 0.2 µM)", "relative viability", 1.02),
    ("Cc1cn(-c2cc(NC(=O)c3ccc(C)c(Nc4nccc(-c5cccnc5)n4)c3)cc(C(F)(F)F)c2)cn1 [Nilotinib] + C[C@@H](Oc1cc(-c2cnn(C3CCNCC3)c2)cnc1N)c1c(Cl)ccc(F)c1Cl [Crizotinib] (partner 1 µM)", "relative viability", 0.987),
    ("Cc1cn(-c2cc(NC(=O)c3ccc(C)c(Nc4nccc(-c5cccnc5)n4)c3)cc(C(F)(F)F)c2)cn1 [Nilotinib] + CCNC(=O)c1noc(-c2cc(C(C)C)c(O)cc2O)c1-c1ccc(CN2CCOCC2)cc1 [Luminespib] (partner 0.01 µM)", "relative viability", 0.548),
    ("Cc1cn(-c2cc(NC(=O)c3ccc(C)c(Nc4nccc(-c5cccnc5)n4)c3)cc(C(F)(F)F)c2)cn1 [Nilotinib] + Cc1nc(Nc2ncc(C(=O)Nc3c(C)cccc3Cl)s2)cc(N2CCN(CCO)CC2)n1 [Dasatinib] (partner 0.075 µM)", "relative viability", 0.95),
    ("Cc1cn(-c2cc(NC(=O)c3ccc(C)c(Nc4nccc(-c5cccnc5)n4)c3)cc(C(F)(F)F)c2)cn1 [Nilotinib] + O=C(CCCCCCC(=O)Nc1ccccc1)NO [Vorinostat] (partner 1 µM)", "relative viability", 0.792),
]
